Where do the numbers come from? From PubChem BioAssay.

# growth inhibition values compiled below
Experiment: inhibition of 3D7 malaria parasite growth – strain 3D7 (AID 2306);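 also: 0% = DMSO wells and 100% = chloroquine plus artemisinin control wells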
Details: P. falciparum 3D7 erythrocytic growth, LDH absorbance, 72 h; at 2 µM; hits give high values
Give a bare numeral; the unit % is implied.

Look over these answered cases.
molecule | reported_value
COC(=O)c1ccc(C2OC3(C(=O)c4ccccc4C3=O)C(OC)=C2Cl)cc1C(C)=O (stereo not given) | 99
Cc1ccc(Cn2ncc(N3CCCNCC3)c(Cl)c2=O)cc1NC(=O)Nc1ccc(-c2ccccc2)cc1 | 101
COc1cc(C(=O)N2CCN(C(C)C)CC2)ccc1CN(C)CCCN1CCN(c2cccc(Cl)c2Cl)CC1 | 101
OC(CNCc1ccccc1Oc1ccccc1)c1cccc(C(F)(F)F)c1 (stereo not given) | 104
Cc1cc(NC(=O)Nc2ccc3nccc(N4CCN(C)CC4)c3c2)ccc1Br | 101

The molecule identified as Cc1cc(N[C@@H](CC(C)C)C(=O)NCCOc2ccccc2)nc(NCC2CCCCC2)n1 registered its growth inhibition at 97

The molecule listed as CCOc1cc(C)ccc1C1CCN(CCCCNC(=O)c2ccc(-c3ccc(C(F)(F)F)cn3)cc2)CC1 shows growth inhibition equal to 99

response.value for COc1ccccc1NC(=O)Nc1ccc(-c2ccc(-c3nc4ccc(C(F)(F)F)cc4[nH]3)cc2)cc1 (field: growth inhibition) = 101

response.value for CCN(CCCN1CCCCC1)c1cc(C)nc(Nc2ccc(Cl)cc2C)n1 (field: growth inhibition) = 95

Short answer for COc1ccc2c(=O)c3ccc(OC)cc3[nH]c2c1 : growth inhibition was 93
